The measured values listed here are drawn from patent US12226490B2.

MEASURED TARGET: T1, human ROR1-Fz (Homo sapiens, UniProt Q01973)
T1 construct: Frizzled (Fz, residues 165-305); HIS6 (C); purchased Acro Biosystems; host or cells: HEK293
T1 sequence (Q01973 165-305): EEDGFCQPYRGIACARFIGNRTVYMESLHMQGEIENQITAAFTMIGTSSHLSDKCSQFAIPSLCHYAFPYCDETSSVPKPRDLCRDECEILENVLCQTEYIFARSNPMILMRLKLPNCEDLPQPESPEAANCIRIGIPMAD
PROTOCOL DETAILS: Biacore off-rate and kinetic analysis, ROR1 frizzled domain
Type: binding
CONDITIONS: Table 11 (SP34 light chain)
OUTCOME MEASURE: Biacore human ROR1-Fz ka (M⁻¹ s⁻¹)

# MOLECULE, REPORTED VALUE
measured = [
    ("SRP2196-A05 (antibody, V domains shown) VH: EVQLVESGGGLVQPGGSLRLSCAASGFNITNYYIHWVRQAPGKGLEWVGYISPNSGATYQADSVKGRFTISADTSKNTAYLQMNSLRAEDTAVYYCARDSRRYVRSWDYWGQGTLVTVSS VL: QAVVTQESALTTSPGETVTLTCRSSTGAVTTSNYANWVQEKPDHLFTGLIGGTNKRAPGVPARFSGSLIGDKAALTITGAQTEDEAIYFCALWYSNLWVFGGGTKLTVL", 175000),
]
